# Lookup of reported pIC50 keyed by entry
Molecular target: GPR6 (Homo sapiens, UniProt P46095)
Construct: expressed in transfected cells; 293 cells are used elsewhere
Sequence (P46095 whole entry): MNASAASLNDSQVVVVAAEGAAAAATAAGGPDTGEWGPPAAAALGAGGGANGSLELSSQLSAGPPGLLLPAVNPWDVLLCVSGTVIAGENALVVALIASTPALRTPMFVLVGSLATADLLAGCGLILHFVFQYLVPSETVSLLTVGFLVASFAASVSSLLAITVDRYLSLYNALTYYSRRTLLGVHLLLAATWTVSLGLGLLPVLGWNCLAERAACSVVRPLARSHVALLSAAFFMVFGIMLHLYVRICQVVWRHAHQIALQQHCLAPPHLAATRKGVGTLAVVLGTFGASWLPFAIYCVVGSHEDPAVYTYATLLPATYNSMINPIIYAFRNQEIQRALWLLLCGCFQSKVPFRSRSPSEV
Assay: membrane-based cyclic AMP confirmation assay (Example 4C)
Type: biochemical
Settings: mean +/- standard deviation (number of assays in brackets); read-out: IC50 Values Cyclic AMP Assay Example 4C
Method: Using an independent assay approach to provide confirmation of a directly identified candidate compound as set forth above, it is preferred that a confirmation assay then be utilized. […] Following the incubation, 100 μl of Detection Buffer was added to each well, followed by incubation for 2-20 hours. Plates were subsequently aspirated and then counted in a Wallac MicroBeta™ plate reader using “Prot. #31” (as per manufacturer instructions).
Kindly note that pIC50 refers to -log10 of the concentration in mol/L and answer with the value alone.

The following molecules have reported results that may help.
O=C(NC(=S)N1CCNC1=S)c1cccnc1	6.07
Cc1cccc(C(=O)NC(=S)N2CCNC2=S)c1	3.92

Query: Output pIC50 of `O=C(N=C1SSC2=NCCN21)c1ccon1`
Response: 7.00

Query: For `O=C(N=C1SSC2=NCCN21)c1ccc(F)cc1` , write its pIC50.
Response: 6.70

Numbers sourced from patent US6420563B1.
